Attribution: paper PMC12527977

# method: Simulated digestive stability of peptides (pepsase then trypsase)
# Type: in vitro ADME, porcine
# test parameters: pig, porcine pepsase (simulated gastric digestion), pH 3, simulated digestion, after porcine pepsase, relative to basal 100; replicate 2; sheet S2H; read-out: Peptide remaining, Pepsase
Where a SMILES comes first, the peptide text is derived from it.
result type: remaining at 2 h, 5 mg/mL (%)
Just the number please, in %, no unit attached.

[
  {
    "compound": "CC(C)[C@H](N)C(=O)N[C@@H](C)C(=O)N[C@@H](CC(=O)O)C(=O)N[C@@H](Cc1c[nH]c2ccccc12)C(=O)O [VADW] (H-VADW-OH)",
    "remaining at 2 h, 5 mg/mL (%)": 14.3
  },
  {
    "compound": "NC(=O)CC[C@H](NC(=O)[C@@H]1CCCN1C(=O)[C@@H](N)Cc1ccccc1)C(=O)N[C@@H](CO)C(=O)O [FPQS] (H-FPQS-OH)",
    "remaining at 2 h, 5 mg/mL (%)": 92.4
  },
  {
    "compound": "CC(C)C[C@H](NC(=O)[C@@H](N)CC(C)C)C(=O)N[C@@H](Cc1ccc(O)cc1)C(=O)O [LLY] (H-Leu-Leu-Tyr-OH)",
    "remaining at 2 h, 5 mg/mL (%)": 0.79
  }
]

Name the recorded remaining at 2 h, 5 mg/mL for CC(C)C[C@H](NC(=O)[C@H](CC(N)=O)NC(=O)[C@@H](N)Cc1ccc(O)cc1)C(=O)N1CCC[C@H]1C(=O)O [YNLP] (H-YNLP-OH) .
99.8

Quick check: remaining at 2 h, 5 mg/mL of CSCC[C@H](NC(=O)[C@H](CC(C)C)NC(=O)[C@H](CCC(N)=O)NC(=O)[C@@H](N)Cc1ccc(O)cc1)C(=O)O [YQLM] (H-YQLM-OH) ?
14.7

Look at this compound and give its reported remaining at 2 h, 5 mg/mL. C[C@H](NC(=O)[C@H](Cc1ccc(O)cc1)NC(=O)[C@H](CO)NC(=O)[C@@H](N)Cc1ccc(O)cc1)C(=O)O [YSYA] (H-YSYA-OH)
17.7
